Origin of measurements: patent US20200347130A1

Test target: T1, Monkey CD96-3xFlag (cyno-CD96-3xFLAG) (cynomolgus monkey)
T1 construct: Signal peptide marked only by lost underlining; also called cynomolgus CD96
T1 chain: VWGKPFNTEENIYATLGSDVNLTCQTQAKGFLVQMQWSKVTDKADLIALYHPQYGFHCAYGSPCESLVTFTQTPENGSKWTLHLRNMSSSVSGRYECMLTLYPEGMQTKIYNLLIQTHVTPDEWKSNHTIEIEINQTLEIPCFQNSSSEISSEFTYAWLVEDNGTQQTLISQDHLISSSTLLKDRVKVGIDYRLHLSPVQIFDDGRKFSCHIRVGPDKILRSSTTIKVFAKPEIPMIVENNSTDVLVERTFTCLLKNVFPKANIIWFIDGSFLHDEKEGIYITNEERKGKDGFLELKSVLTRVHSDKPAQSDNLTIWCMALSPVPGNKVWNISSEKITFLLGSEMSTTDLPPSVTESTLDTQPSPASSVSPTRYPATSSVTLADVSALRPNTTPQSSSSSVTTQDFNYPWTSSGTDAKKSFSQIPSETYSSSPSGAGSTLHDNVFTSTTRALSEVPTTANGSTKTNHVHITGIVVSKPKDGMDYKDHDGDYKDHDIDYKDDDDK
Assay summary: ELISA, cyno-CD96-3xFLAG coated
The entries below are paired with their reported pEC50.
// returns pEC50 (minus log10 of molar concentration), number only

[Q] Request the reported pEC50 associated with h1719-014 (antibody, V domains shown, Only variable regions are tied to this name; also called M719-014) VH: EVTLKESGPVLVKPTETLTLTCTVSGFSLSSYGVSWVRQPPGKGLEWLGVIWGDGNTNYHSVLISRLTISKDTSKSQVVLTLTNMDPVDTATYYCAKNYYYGSRYGYPLDYWGQGTTVTVSS VL: DIQMTQSPSSVSASVGDRVTITCKATQDVGTAVAWYQQKPGKSPKLLIYWASTRHTGVPERFSGSGSGTDFTLTISSLQPEDFATYFCQQYGSSVLTFGGGTKVEIK
[A] 10.19

[Q] Endpoint output: pEC50 of h1722-010 (antibody, V domains shown, Only variable regions are tied to this name; also called M722-010) VH: EVQLVQSGAEVKKPGSSVKVSCKASGGTFSDYWMHWVRQAPGQGLEWIGMLHPNSGTTSFNEKFKIRVTITADKSTSTAYMELSSLRSEDTAVYYCASDYSGPFAYWGQGTLVTVSS VL: DIQLTQSPSSLSASVGDRVTITCSASSSVNYIHWYQQKPGKAPKRWIFDTSKLASGVPSRFSGSGSGTDYTLTISSLQPEDFATYYCQQWRSNPLTFGQGTKLEIK . Value?
[A] 10.33

[Q] Query (binder): ch1721 (antibody, human IgG4 S228P, kappa, V domains shown, also called chimeric antibody corresponding to m1721) VH: QVQLKESGPGLVAPSQSLSITCTVSGFSLISYGVNWVRQPPGKGLEWLGVIWGDGSTNYHSALISRLSISKDDSKSQVFLNLNSLQTDDTATYYCAKNYFYGSRYGYAMDSWGQGISVTVSS VL: DIQMTQSPASLSAAVGETVTITCRASENIYSSLAWYQQKQGKSPQLLVYNAKTLIETVASRFSGSGSGTQYSLKINSLQPEDFGSFYCQHHYGTPYTFGGGTKLEIKR ; field requested: pEC50
[A] 10.34
